Source of measurements: PubChem BioAssay (NCI)

test system: A498 renal; assay: NCI tumour cell line growth inhibition, 48 h
Entry flag: 1.0 if TGI reaches 20 µM; 0.0 if it does not.

Please review the following examples before continuing.
{"COMPOUND": "Cn1cnc([N+](=O)[O-])c1S(=O)(=O)Oc1cccc2ccccc12", "GROUP LABEL": 1.0}
{"COMPOUND": "COc1cc2c3c(n(C)c(=O)c2cc1OC)-c1cc2c(cc1/C3=C\\CCCN)OCO2", "GROUP LABEL": 0.0}
{"COMPOUND": "CCN(CC)/C(SCc1ccccc1)=C(\\C(Cl)=C(Cl)Cl)[N+](=O)[O-]", "GROUP LABEL": 1.0}
{"COMPOUND": "CN(C)c1ccc(C(=N/N=C2\\C(=O)Nc3ccccc32)c2ccc(N(C)C)cc2)cc1", "GROUP LABEL": 0.0}
{"COMPOUND": "CC(C)[C@H]1COC(=O)N1[C@@H]1C(=O)N([C@@H](CCC(=O)N2CCN(C3CCCC3)CC2)C(=O)N[C@@H]2CCCc3ccccc32)[C@@H]1/C=C/c1cccc(Br)c1", "GROUP LABEL": 0.0}
{"COMPOUND": "Cc1cc(O)c(/C=N/C(=S)NCc2ccccc2)c(=O)o1", "GROUP LABEL": 1.0}

// query For this compound, is measured TGI 20 µM or higher? `CCOC(=O)C(=C=C=C(c1ccccc1)c1ccccc1)C(=O)OCC`
// result 1.0

// query For this compound, is measured TGI 20 µM or higher? COC(OC)C(C)CC(=O)N(C)C (stereo not given)
// result 1.0

// query For this compound, is measured TGI 20 µM or higher? N#CC12C(=O)N=C(N)C1(C#N)C(c1ccco1)NC1=C2CCCC1 (stereo not given)
// result 1.0

// query For this compound, is measured TGI 20 µM or higher? `O=C(/C=C\c1ccc(Cl)c(Cl)c1)c1ccc(Cl)cc1Cl`
// result 1.0

* * *

test system: UO-31 renal; assay: NCI tumour cell line growth inhibition, 48 h
I'd appreciate it if you could supply TGI values for the items below.

# example entries with known answers
{"COMPOUND": "Cc1ccc(S(=O)(=O)N/N=C/C2(c3ccccc3)c3ccccc3-c3ccccc32)cc1", "EXPERIMENTAL ENDPOINT": "TGI", "ENDPOINT VALUE": "18.6 µM"}
{"COMPOUND": "COc1ccc(-c2nc(SCC(=O)N/N=C/c3ccc(N(C)C)cc3)[nH]c2-c2ccc(OC)cc2)cc1", "EXPERIMENTAL ENDPOINT": "TGI", "ENDPOINT VALUE": "> 100 µM"}
{"COMPOUND": "Cn1cnc([N+](=O)[O-])c1S(=O)(=O)Oc1cccc2ccccc12", "EXPERIMENTAL ENDPOINT": "TGI", "ENDPOINT VALUE": "4.33 µM"}
{"COMPOUND": "Cc1cc(C(=O)CCCCOc2ccc(C3=NCCO3)cc2)c(C)n1C", "EXPERIMENTAL ENDPOINT": "TGI", "ENDPOINT VALUE": "> 100 µM"}
{"COMPOUND": "OCc1ccc(-c2ccc(-c3ccc(CO)s3)o2)s1", "EXPERIMENTAL ENDPOINT": "TGI", "ENDPOINT VALUE": "> 84.7 µM"}
{"COMPOUND": "Cc1c(S(=O)(=O)c2ccccc2)c(N)n(CCN(C)C)c1C", "EXPERIMENTAL ENDPOINT": "TGI", "ENDPOINT VALUE": "> 100 µM"}

Would you mind listing TGI for each of the following compounds?
1. COC(OC)C(C)CC(=O)N(C)C (configuration not stated)
2. CN(C)C1(N(C)C)Oc2c(c(=O)n(C)c(=O)n2C)C(c2ccc(Br)cc2)C1(F)F (configuration not stated)
3. Cc1cc2c(cc1Cl)SC(N(N(C)C)S(=O)(=O)c1ccc(Cl)cc1)=NS2(=O)=O
4. OCCc1ccsc1-c1sc(-c2cc(CCO)c(-c3sccc3CCO)s2)cc1CCO
5. CC1(C)C2CCC1(C)[C@H](n1c(=O)n([C@@H]3CC4CCC3(C)C4(C)C)c(=O)n([C@@H]3CC4CCC3(C)C4(C)C)c1=O)C2

// result
["> 100 µM", "> 100 µM", "> 100 µM", "31.4 µM", "> 100 µM"]

* * *

test system: SNB-19 CNS; assay: NCI tumour cell line growth inhibition, 48 h
I'd appreciate it if you could supply GI50 values for the items below.

# example entries with known answers
{"MOLECULE": "CCN(CC)c1ccc(-c2cc(-c3cc(OC)c(OC)c(OC)c3)nc(N3CCOCC3)c2C#N)cc1", "GI50": "12.8 µM"}
{"MOLECULE": "O=C1c2cc3c(cc2-c2c1c1ccc(F)cc1c(=O)n2CCCNCCO)OCO3", "GI50": "0.0431 µM"}
{"MOLECULE": "O=C(/C=C/c1ccc(Cl)cc1)c1ccc(Nc2ccnc3cc(Cl)ccc23)cc1", "GI50": "> 57.6 µM"}

Would you mind listing GI50 for each of the following molecules?
1. Nc1ncnc2n[nH]c(Nc3ccc(F)cc3)c12
2. CC(=O)[C@@]12O[C@@H]1CC1C3CCC4=CC(O)CCC4(C)C3CCC12C (stereo not given in full)

// result
1: 61.7 µM; 2: 38.8 µM

* * *

tested on: HCT-116 colon; test: NCI tumour cell line growth inhibition, 48 h; in the data active means GI50 below about 0.43 µM; inactive means the rest
Please state which outcome applies, choosing from active, inactive

Please review the following examples before continuing.
{"COMPOUND": "O=C(CSc1ccc(Cl)cc1)Nc1ccc(-c2nc3ccccc3s2)c(Cl)c1", "TEST SYSTEM": "HCT-116 colon", "GROUP LABEL": "inactive"}
{"COMPOUND": "CN1CCN(CCCn2c(=O)c3sc4ncccc4c3n3nnc(-c4ccccc4)c23)CC1", "TEST SYSTEM": "HCT-116 colon", "GROUP LABEL": "inactive"}
{"COMPOUND": "CC(=O)[C@@]12O[C@@H]1CC1C3CCC4=CC(O)CCC4(C)C3CCC12C (some centres undefined)", "TEST SYSTEM": "HCT-116 colon", "GROUP LABEL": "inactive"}
{"COMPOUND": "Cc1cc2c(cc1Cl)SC(N(N(C)C)S(=O)(=O)c1ccc(Cl)cc1)=NS2(=O)=O", "TEST SYSTEM": "HCT-116 colon", "GROUP LABEL": "inactive"}
{"COMPOUND": "O=C(CCc1nnc2sc(-c3ccc(Cl)cc3Cl)nn12)c1nc2ncccc2[nH]1", "TEST SYSTEM": "HCT-116 colon", "GROUP LABEL": "inactive"}

// query Which outcome was entered for the compound `O=C1c2cc3c(cc2-c2c1c1ccc(F)cc1c(=O)n2CCCNCCO)OCO3` in this test?
// result active

// query Which outcome was entered for the compound `CO[C@H]1/C=C(/C)CCC[C@H](C)[C@H](O)[C@@H](C)C(=O)C(C)(C)[C@@H](O)CC(=O)O[C@@H]1/C(C)=C/c1csc(C)n1` in this test?
// result active

// query Which outcome was entered for the compound OC(c1cc(-c2ccc(C(F)(F)F)cc2)nc(-c2ccc(C(F)(F)F)cc2)c1)C1CCCCN1 (centres undefined) in this test?
// result inactive

// query Which outcome was entered for the compound `Nc1ncnc2n[nH]c(Nc3ccc(F)cc3)c12` in this test?
// result inactive

* * *

I'd appreciate it if you could supply TGI values for the items below.
test system: 786-0 renal; assay: NCI tumour cell line growth inhibition, 48 h

# example entries with known answers
{"COMPOUND": "COc1cc(NCc2ccc3oc(=O)c(-c4ccccc4)nc3c2)cc(OC)c1OC", "TEST SYSTEM": "786-0 renal", "ENDPOINT VALUE": "> 10 µM"}
{"COMPOUND": "COC(=O)C1=C(C)NC(C)=C(C(=O)OCCCN2CCC(c3ccccc3)(c3ccccc3)CC2)C1c1cccc([N+](=O)[O-])c1 (stereo not drawn)", "TEST SYSTEM": "786-0 renal", "ENDPOINT VALUE": "2.99 µM"}
{"COMPOUND": "NC1=NCC(CN2CCOCC2)O1 (stereo not drawn)", "TEST SYSTEM": "786-0 renal", "ENDPOINT VALUE": "> 100 µM"}
{"COMPOUND": "O=c1c2sccc2n(CC2COc3ccccc3O2)c(=O)n1O (stereo not drawn)", "TEST SYSTEM": "786-0 renal", "ENDPOINT VALUE": "> 100 µM"}
{"COMPOUND": "COc1ccc(-c2nc(SCC(=O)N/N=C/c3ccc(N(C)C)cc3)[nH]c2-c2ccc(OC)cc2)cc1", "TEST SYSTEM": "786-0 renal", "ENDPOINT VALUE": "> 100 µM"}

Would you mind listing TGI for each of the following compounds?
1. CCOC(=O)c1ccc(NCC#CCN2CCOCC2)cc1
2. COc1ccc(/C=C(/C#N)n2nnc3cccc(F)c32)cc1
3. C=C1NC(=O)C(C(C)CC)NC(=O)C2CSCC(NC(=O)CCC(=O)O)C(=O)NC(Cc3ccccc3)C(=O)NC(C)C(=O)NC(CC(C)CC)C(=O)NC(C(=O)NC(Cc3ccccc3)C(=O)N3CCCC3C(=O)N2)C(C)OC(=O)C(CO)NC(=O)C(C(O)COC)N(C)C(=O)C(C(C)C)NC(=O)C(CC(C)CC)NC1=O (stereo not drawn)

// result
> 100 µM
> 100 µM
> 6 µM
